pIC50: −log10 of the molar value.
We begin with pIC50 values for UniProt Q06187, as collected from the published literature.
Recorded Endpoint: pIC50

[[record]]
compound = "Cc1cc(-c2ccnc(Nc3cnn(C)c3)n2)ccc1CNC(=O)c1cc2c(s1)CCCO2"
recorded_endpoint = "pIC50"
value_measured = "> 8.00"

[[record]]
compound = "COc1ccc(F)c(C(=O)c2c[nH]c3ncc(-c4ccccc4)cc23)c1"
recorded_endpoint = "pIC50"
value_measured = "≥ 5.00"

[[record]]
compound = "CC(C)OC1CN(C(=O)NC2CCCCc3cc(-c4ccnc(Nc5cnn(C6CCN(C)CC6F)c5)n4)ccc32)C1 (centres unmarked)"
recorded_endpoint = "pIC50"
value_measured = "> 8.00"

[[record]]
compound = "Cn1cc(-c2cn3nccc3c(-c3ccc(CNC(=O)c4cnn(C(C)(C)C)c4)cc3)n2)cn1"
recorded_endpoint = "pIC50"
value_measured = "8.00 to 9.00"

[[record]]
compound = "Cc1ccc2c(N)c(C(N)=O)nnc2c1-c1ccc2ncn(C)c2c1"
recorded_endpoint = "pIC50"
value_measured = 7.30

[[record]]
compound = "C=CC(=O)N1CC[C@@H](Nc2nc(Nc3cc(C)ns3)nc3ccsc23)C1"
recorded_endpoint = "pIC50"
value_measured = "≥ 7.30"

[[record]]
compound = "COCCN(C/C=C/C(=O)N1CC[C@@H](n2c(C#N)c(-c3ccc(Oc4ccccc4)cc3)c3c(N)ncnc32)C1)CCOC"
recorded_endpoint = "pIC50"
value_measured = "> 7.00"

[[record]]
compound = "O=C(Nc1cc(Cl)cc(Cl)c1)C(=O)N1CCCC(Nc2ncnc3[nH]ccc23)C1 (centres unmarked)"
recorded_endpoint = "pIC50"
value_measured = "< 5.00"


====

We begin with IC50 values for BTK (Homo sapiens, UniProt Q06187), as collected from the published literature.
Recorded Endpoint: IC50

[[record]]
molecule = "C=CC(=O)N1CCC=C(c2cnc(C(N)=O)c3[nH]c4c(c23)CC(F)(F)CC4)C1"
value_measured = "10 to 100 nM"

[[record]]
molecule = "CN(C)C/C=C/C(=O)N(C)c1cccc(Nc2cc(Nc3ccc(Oc4ccccc4)cc3)ncn2)n1"
value_measured = "≤ 10 nM"

[[record]]
molecule = "Cc1cc(-c2ccnc(Nc3cnn(C[C@@H](O)CN)c3)n2)ccc1CNC(=O)c1cnc(C(C)(C)C)s1"
value_measured = "< 10 nM"

[[record]]
molecule = "CCN(c1ncnc2[nH]ccc12)C1CCCN(C(=O)CNc2cc(Cl)cc(Cl)c2)C1 (stereo not shown)"
value_measured = "100 to 999 nM"

[[record]]
molecule = "CS(=O)(=O)Nc1cccc(-c2cnc3[nH]cc(C(=O)c4cccc(NS(=O)(=O)c5cccnc5)c4)c3c2)c1"
value_measured = "≤ 10000 nM"

[[record]]
molecule = "CN(C)C/C=C/C(=O)N(C)c1cccc(-n2c(=O)n(-c3ccc(C(=O)Nc4cccc(-c5ncccn5)c4)cc3)c3c(N)ncnc32)c1"
value_measured = "< 100 nM"

[[record]]
molecule = "C=CC(=O)N1CCC(c2cc(-c3ccc(Oc4ccccc4)cc3)cc3cncnc23)C1 (stereo not shown)"
value_measured = "< 100 nM"

[[record]]
molecule = "O=C(NCc1ccc(-c2ccnc3[nH]ccc23)nc1)c1cc2c(s1)CCCC2"
value_measured = "10 to 99 nM"

[[record]]
molecule = "C=CC(=O)Nc1cccc(Oc2nc(Nc3ccc(N4CCOCC4)cc3)nc3ccsc23)c1"
value_measured = "≤ 50 nM"

[[record]]
molecule = "C=CC(=O)Nc1cccc(Oc2nc(Nc3ccc(CN4CCN(CC)CC4)cc3)nc3ccsc23)c1"
value_measured = "50 to 100 nM"

[[record]]
molecule = "CN(c1ncnc2[nH]ccc12)[C@@H]1CCCN(C(=O)CNc2cc(C(F)(F)F)cc(C(F)(F)F)c2)C1"
value_measured = "> 10000 nM"

[[record]]
molecule = "CS(=O)(=O)c1cccc(-c2cnc3[nH]cc(C(=O)c4cc(NS(=O)(=O)C5CCCCC5)ccc4F)c3c2)c1"
value_measured = "≤ 10000 nM"

[[record]]
molecule = "CC(C)(C)OC1CN(C(=O)NCc2ccc(-c3ccnc(Nc4cnn(CCO)c4)n3)cc2C(F)(F)F)C1"
value_measured = "< 10 nM"

[[record]]
molecule = "C=CC(=O)N1C[C@@H]2C[C@H]1[C@@H](n1nc(-c3ccc(C(=O)Nc4ccccn4)cc3Cl)c3c(N)ncnc31)C2"
value_measured = "1.2 nM"

[[record]]
molecule = "C=CC(=O)N1CCC(Cn2cc(-c3ccc(Oc4ccccc4)cc3)c3c(N)n[nH]c(=O)c32)C1 (stereo not shown)"
value_measured = "10 to 1000 nM"

[[record]]
molecule = "CC1C(N(C)c2ncnc(N)c2F)CCCN1C(=O)CNc1cc(Cl)cc(Cl)c1 (stereo not shown)"
value_measured = "< 100 nM"

[[record]]
molecule = "Cc1cc(-c2nc(C(=O)Nc3cn4cc(CCC(C)(C)O)nc4cc3-c3cccs3)co2)ccn1"
value_measured = "26.5 nM"

[[record]]
molecule = "C=CC(=O)N1CCC(n2cc(Nc3ncc(C(=O)Nc4c(C)cccc4Cl)s3)cn2)CC1"
value_measured = "19.9 nM"

[[record]]
molecule = "COc1cc(-c2cc3c(-c4ccc(CNC(=O)c5noc(C(C)(C)C)n5)c(C)c4)ncnn3c2)ccn1"
value_measured = "≤ 1 nM"

[[record]]
molecule = "C=CC(=O)N1CC[C@H](Nc2cncc(-c3cnc(Nc4ccccc4OC(F)(F)F)nc3)n2)C1"
value_measured = "6.72 nM"

[[record]]
molecule = "Cc1cccc(Oc2ccc(-c3nc(C4CCC(O)CC4)n4ccnc(N)c34)cc2)c1 (stereo not shown)"
value_measured = "≤ 10 nM"

[[record]]
molecule = "CC(C)N1CCN(CC2CCN(c3nc(-c4cnn(C)c4)cn4nccc34)CC2)C(=O)C1"
value_measured = "1000 to 10000 nM"

[[record]]
molecule = "C=CC(=O)Nc1cccc(Oc2nc(Nc3ccc(N4CCN(C)CC4)cc3)nc3ccoc23)c1"
value_measured = "≤ 50 nM"

[[record]]
molecule = "Cc1cc(-c2ncnc3nc(C4CCN(C)CC4)[nH]c23)ccc1CNC(=O)c1cnc(C(C)(C)C)s1"
value_measured = "100 to 999 nM"

[[record]]
molecule = "C=CC(=O)Nc1cccc(Oc2c(Cl)cnc3[nH]c(-c4ccc(CN5CCN(C)CC5)cc4)nc23)c1"
value_measured = "50 to 100 nM"

[[record]]
molecule = "COc1c(Cl)cccc1NCC(=O)NC1CCCN(c2ncnc3[nH]ccc23)C1 (stereo not shown)"
value_measured = "100 to 999 nM"

[[record]]
molecule = "C=CC(=O)N1CC[C@]2(C1)C[C@H](n1c(NC(=O)c3ccc(-c4ccnc(C)c4)s3)nc3ccccc31)C2"
value_measured = "0.41 nM"

[[record]]
molecule = "Cc1cc(-c2ncnc3cc[nH]c23)cnc1CNC(=O)c1cc2c(s1)CCCC2"
value_measured = "100 to 999 nM"

[[record]]
molecule = "Cn1cc(-c2cn3nccc3c(N3CC[C@@H](CNC(=O)c4noc(C(C)(C)C)n4)[C@@H](F)C3)n2)cn1 (single isomer, unassigned)"
value_measured = "1 to 10 nM"

[[record]]
molecule = "O=C(Nc1cccc(Nc2cc(Nc3ccc(F)c(Cl)c3)ncn2)c1)C1(C(F)(F)F)CC1"
value_measured = "≥ 10000 nM"

[[record]]
molecule = "C=CC(=O)N1CCC[C@@H](Nc2nc(Nc3cnn(C)c3)nn3cccc23)C1"
value_measured = "≤ 50 nM"


====

pIC50: −log10 of the molar value.
We begin with pIC50 values for BTK (Homo sapiens), as collected from the published literature.
Recorded Endpoint: pIC50

[[record]]
compound = "C=CC(=O)N1CC2CC1C(n1nc(-c3ccc(NC(=O)c4cccc(N(C)C)c4)cc3)c3c(N)ncnc31)C2 (stereo not shown)"
relation_symbol = "="
value_measured = 7.54

[[record]]
compound = "COCCn1cc(Nc2nccc(-c3ccc4c(c3)CCCCC4NC(=O)N3CCC(C(C)(C)C)C3)n2)cn1 (stereo not shown)"
relation_symbol = ">"
value_measured = 8.00

[[record]]
compound = "CN1CCN(c2ccc(Nc3cc(-c4ccnc(N5CCn6c(cc7c6CC(C)(C)C7)C5=O)c4CO)nc4ccoc34)nc2)CC1"
relation_symbol = "="
value_measured = 9.64

[[record]]
compound = "C=CC(=O)N1CCC[C@@H](n2nc(-c3ccc(C(=O)Nc4ccccn4)cc3Cl)c3c(N)ncc(C#N)c32)C1"
relation_symbol = "="
value_measured = 8.89

[[record]]
compound = "Nc1c(C(=O)c2cc3ccccc3[nH]2)cnn1-c1ccc(Oc2cccnc2)cc1"
relation_symbol = "="
value_measured = 4.66


====

We begin with IC50 values for BTK (Homo sapiens, UniProt Q06187), as collected from the published literature.
Recorded Endpoint: IC50

[[record]]
compound = "CN(C)C/C=C/C(=O)N(C)c1ccc(-n2c(=O)n(-c3ccc(Cl)cc3)c3c(N)ncnc32)cc1"
recorded_endpoint = "IC50"
value_measured = "100 to 1000 nM"

[[record]]
compound = "Cn1cc(-c2cn3nccc3c(-c3cc(F)c(CNC(=O)c4noc(C(C)(C)C)n4)cc3F)n2)cn1"
recorded_endpoint = "IC50"
value_measured = "< 1 nM"

[[record]]
compound = "C[C@H]1CN(C2COC2)CCN1c1ccc(Nc2cc(-c3c(C#N)ccc(N4CCn5c(cc6c5CC(C)(C)C6)C4=O)c3CO)cn(C)c2=O)nc1"
recorded_endpoint = "IC50"
value_measured = "0.38 nM"

[[record]]
compound = "N#C/C(=C\\C1CC1)C(=O)N1CCC(C2CCNn3c2nc(-c2ccc(Oc4ccccc4)cc2)c3C(N)=O)CC1 (stereo not shown)"
recorded_endpoint = "IC50"
value_measured = "285 nM"

[[record]]
compound = "CN(c1ncnc2[nH]ncc12)[C@@H]1CCCN(C(=O)CNc2cc(Cl)cc(Cl)c2)C1"
recorded_endpoint = "IC50"
value_measured = "< 100 nM"

[[record]]
compound = "C=CC(=O)N[C@H]1CC[C@@H](Nc2nc(Nc3ccc(OC4CCN(C)CC4)c(F)c3)nc3ccsc23)CC1"
recorded_endpoint = "IC50"
value_measured = "≤ 50 nM"

[[record]]
compound = "CC#CC(=O)N1CCC[C@H]1c1nc(-c2ccc(OCc3ccccn3)cc2)c2c(N)nccn12"
recorded_endpoint = "IC50"
value_measured = "300 to 750 nM"

